Tested on: Schistosoma mansoni
Assay type: functional
Design: scale not given here
Toxicity values for the compounds below.
Note: the reply should be a number with no unit written.

Asked: // lookup Toxicity for c1ccc2c(NCCc3c[nH]c4ccccc34)c3ccccc3nc2c1
Given back: 3

Asked: // lookup Toxicity for O=C(Nc1cccc(C2=NCCN2)c1)Nc1cccc(C2=NCCN2)c1
Given back: 0

Asked: // lookup Toxicity for Cc1cc(C)cc(Nc2cc(C)nc3nc(C(F)(F)F)nn23)c1
Given back: 0

Asked: // lookup Toxicity for OC1=C2C(=Nc3ccccc3SC2c2ccccc2)c2ccccc21 (stereo unspecified)
Given back: 0

Asked: // lookup Toxicity for CCCCCn1c(=N)n(CC(O)COc2cccc(C)c2)c2ccccc21.Cl (stereo unspecified)
Given back: 2

Asked: // lookup Toxicity for COc1ccc(C=C2SC(=N)N(c3ccccc3OC)C2=O)cc1
Given back: 0

Asked: // lookup Toxicity for CC1CCN(Cc2ccc(NC(=O)c3cc4ccc5cccnc5c4[nH]3)cc2)CC1
Given back: 0

Asked: // lookup Toxicity for O=C(Nc1ccccc1O)c1ccc(Oc2cccc(C(=O)Nc3ccccc3O)c2)cc1
Given back: 0

Asked: // lookup Toxicity for COc1cccc(-c2nn(C)c3sc(C(=O)NCCN4CCN(c5ccccc5F)CC4)cc23)c1
Given back: 0

Asked: // lookup Toxicity for N=c1c2ccccc2nnn1-c1cccc(C(F)(F)F)c1
Given back: 0

Asked: // lookup Toxicity for COc1ccc(-c2cc3c(nn2)-c2ccccc2C3=O)cc1
Given back: 0

----------
Test system: Schistosoma mansoni
Assay type: functional
Parameters: scale not given here
Binarize Toxicity at 1; below is true (1), at or above is false (0).

Check out these entries, answers already filled in.
O=C(Nc1cccc(C(F)(F)F)c1)c1cc(Cl)ccc1O :: false (0)
COc1ccc2c(c1)C1(Nc3ccccc3-c3nc4ccccc4n31)C(=O)N2 (stereo unspecified) :: true (1)
CCCCCCc1cc2cc(-c3nc4ccccc4[nH]3)c(=Nc3ccccc3C)oc2cc1O :: true (1)
Oc1ccc(C(=C(Cl)Cl)c2ccc(O)cc2)cc1 :: true (1)
O=C(Nc1ccc(Cl)c(Cl)c1)Nc1ccc(Cl)c(Cl)c1 :: false (0)
CCN(CC)CCNc1ncnc2c1[nH]c1ccc(Cl)cc12 :: true (1)
FC(F)(F)c1cccc(Nc2nc(-c3ccccc3)nc3ncccc23)c1 :: true (1)
COc1ccccc1CNC(=O)CCn1c(=O)[nH]c2ccsc2c1=O :: true (1)
CCCCCCn1c(=N)n(CC(O)COc2cccc(C)c2)c2ccccc21.Cl (stereo unspecified) :: false (0)
CCCCc1c(C)nc2c(OC)cccc2c1O :: true (1)

Asked: # TODO verify Toxicity < 1 strictly for this compound: O=C(Nc1ccc(N2CCCCC2)c(Cl)c1)c1ccc(Br)o1
Given back: true (1)

Asked: # TODO verify Toxicity < 1 strictly for this compound: Cc1ccc(F)cc1NC(=O)c1cc(Cl)ccc1Nc1ccccc1
Given back: true (1)

Asked: # TODO verify Toxicity < 1 strictly for this compound: OC(CNCC1CCCO1)Cn1c2ccc(Cl)cc2c2cc(Cl)ccc21 (stereo unspecified)
Given back: true (1)

Asked: # TODO verify Toxicity < 1 strictly for this compound: CCN(CC)CCCNc1nc(-c2ccc(Cl)cc2)nc2ccccc12
Given back: false (0)

Asked: # TODO verify Toxicity < 1 strictly for this compound: COc1ccc(Br)cc1C1Nc2ccc3ccccc3c2C2=C1C(=O)CC(c1ccccc1)C2 (stereo unspecified)
Given back: true (1)

----------
Tested on: Schistosoma mansoni
Type: functional
Set-up: scale not given here
measured-endpoint: Toxicity
Note: the reply should be a number with no unit written.

COc1ccc(-c2nonc2NC(=O)c2cccc(C)c2)cc1OC :: 0

Asked: // lookup Toxicity for N=c1n(CCN2CCCCC2)c2ccccc2n1CC(=O)c1ccc(Cl)c(Cl)c1
Given back: 3

Asked: // lookup Toxicity for CC(C)c1ccc(CNCC(O)c2ccccc2)cc1.Cl (stereo not given)
Given back: 0

Asked: // lookup Toxicity for COc1ccc(OC)c(C2C3=C(CC(C)(C)CC3=O)N(c3ccc(Cl)c(Cl)c3)C3=C2C(=O)CC(C)(C)C3)c1
Given back: 1

Asked: // lookup Toxicity for Cc1ccc(C(=O)c2oc3ccc4c(C)cc(=O)oc4c3c2C)cc1
Given back: 0

Asked: // lookup Toxicity for CC(C)(C)c1ccc(C(=O)Nc2nc3ccccc3s2)cc1
Given back: 2

Asked: // lookup Toxicity for CN(C)CCNc1cc(-c2ccccc2)nc2ccccc12
Given back: 2

Asked: // lookup Toxicity for FC(F)(F)c1cccc(Nc2nc3ccccc3nc2Nc2cccc(C(F)(F)F)c2)c1
Given back: 3

Asked: // lookup Toxicity for COc1ccc(CCN2C(=O)c3[nH]nc(-c4cc(Cl)c(C)cc4O)c3C2c2ccccc2F)cc1 (stereo not given)
Given back: 0

Asked: // lookup Toxicity for Cc1ccnc(NC(c2cccc(OCc3ccccc3)c2)c2ccc3cccnc3c2O)c1 (stereo not given)
Given back: 1

----------
System: Schistosoma mansoni
Format: functional
Parameters: scale not given here
Toxicity values for the molecules below.
Note: the reply should be a number with no unit written.

CCOc1cc2c(cc1OCC)C(c1cc(Cl)c(O)c(OCC)c1)NCC2 (stereo not given) :: 0
Oc1ccccc1CN1CCC2(CCCN(Cc3ccccc3F)C2)C1 (stereo not given) :: 2
CCCCCC(=O)N1c2ccccc2N=C2CC(c3ccc(OC)c(OC)c3)CC(O)=C2C1c1ccc(C(F)(F)F)cc1 (stereo not given) :: 0
O=C(O)C1Cc2c([nH]c3ccccc23)C(c2ccc(Cl)cc2Cl)N1 (stereo not given) :: 0

Asked: // lookup Toxicity for CN(C)c1ccc(N=Cc2ccc(N3CCOCC3)cc2)cc1
Given back: 0

Asked: // lookup Toxicity for Cl.Clc1cc(Br)ccc1-c1ccc(CNCC2CCNCC2)o1
Given back: 4

Asked: // lookup Toxicity for COc1ccc(C2NCCc3c2[nH]c2ccccc32)cc1CN1CCN(c2ccc(F)cc2)CC1.Cl (stereo not given)
Given back: 3

Asked: // lookup Toxicity for CC(C)(C)c1ccc(C(=O)Nc2c3c(nn2-c2cccc(Cl)c2)CSC3)cc1
Given back: 0

Asked: // lookup Toxicity for FC(F)(F)c1cccc(CNC2CCN(CCc3ccccc3)CC2)c1
Given back: 0

Asked: // lookup Toxicity for CCOc1c(Cl)cc(CNCC(O)c2ccccc2)cc1OC (stereo not given)
Given back: 0

Asked: // lookup Toxicity for CN1CCN(c2ncnc3c2[nH]c2ccc(Cl)cc23)CC1
Given back: 0

----------
System: Schistosoma mansoni
Format: functional
Set-up: scale not given here
Toxicity values for the molecules below.
Note: the reply should be a number with no unit written.

Recorded results for 10 molecules are shown here.
CCn1c(SCC(=O)Nc2cc(C(F)(F)F)ccc2Cl)nc2ccccc2c1=O :: 0
CCCOCc1cc(CN2CCN(c3cccc(Cl)c3)CC2)c(O)c2ncccc12 :: 3
CN(C)c1ccc(N2C(N)=NC(N)=NC2(C)C)cc1 :: 0
COCCNC(=O)c1ccc(OC2CCN(Cc3ccc(F)c(F)c3)CC2)c(Cl)c1 :: 0
O=C(Nc1cccc(-c2nc3ccccc3[nH]2)c1)c1cccc(NC(=O)c2ccco2)c1 :: 0
CCOc1ccc(-c2nonc2NC(=O)c2cccc(C)c2)cc1OCC :: 0
CCOC(=O)c1cn(CC)c2cc(N3CCCCC3)c(F)cc2c1=O :: 0
O=c1c2c([nH]c3ccccc13)CCCC2 :: 0
Cc1cc(N2CCCC2)nc(Nc2ccc(NC(=O)CCc3ccccc3)cc2)n1 :: 0
Cc1cc(C)c2c(c1)OCN(Cc1ccccc1Cl)C2 :: 0

Asked: // lookup Toxicity for CCOC(=O)c1cnc2ccc(Cl)cc2c1NCCCN(C)C
Given back: 1

Asked: // lookup Toxicity for Cc1cc(Nc2ccc(C)c(Cl)c2)n2nc(C(F)(F)F)nc2n1
Given back: 0

Asked: // lookup Toxicity for CCN1CCN(c2cc(C)c3cc(NC(=O)c4ccc(OC)c(OC)c4)ccc3n2)CC1
Given back: 1

----------
Toxicity values for the molecules below.
Tested on: Schistosoma mansoni
Type: functional
Parameters: scale not given here
Note: the reply should be a number with no unit written.

O=C(Nc1ccc(Cl)cc1)N1CCN(c2ccc3nncn3n2)CC1 :: 0
Cc1ccc(C)c(Cn2c(N3CCC(C(=O)NCc4cccs4)CC3)nc3ccccc32)c1 :: 0
CCOc1ccc(-n2cc(-c3ccccc3)c3c(SCc4cc(C)ccc4C)ncnc32)cc1 :: 0
Cc1ccc(Nc2nc(N)c3ccccc3n2)cc1Cl :: 2
Cc1ccc(-c2cc3nc4c(c(O)n3n2)CCCC4)cc1 :: 0

Asked: # query: Toxicity | item CN(N=O)C1=C(NC2CCCCC2)C(=O)c2ccccc2C1=O | system: Schistosoma mansoni
Given back: 0

Asked: # query: Toxicity | item CCN(CC)CCNc1ccnc2cc3ccccc3cc12.O=P(O)(O)O | system: Schistosoma mansoni
Given back: 2

Asked: # query: Toxicity | item Oc1c(C(Nc2ccccn2)c2cccc(Oc3ccccc3)c2)ccc2cccnc12 (configuration not stated) | system: Schistosoma mansoni
Given back: 0

Asked: # query: Toxicity | item CCCc1c(C)nc2ccc(Br)cc2c1O | system: Schistosoma mansoni
Given back: 0

Asked: # query: Toxicity | item O=C(Nc1ccc(-c2nc3cc4ccccc4cc3[nH]2)cc1)c1cccc(Br)c1 | system: Schistosoma mansoni
Given back: 0

Asked: # query: Toxicity | item CCN(CC)CCNc1ccnc2cc(Cl)ccc12 | system: Schistosoma mansoni
Given back: 0

Asked: # query: Toxicity | item CC1CN(C(=O)c2sc3ccccc3c2Cl)CC(C)O1 (configuration not stated) | system: Schistosoma mansoni
Given back: 0
